- experimental-target: EP4 (Homo sapiens (Human))
- assay-comment: hEP4 cAMP assay (BT549 breast cancer cells, HTRF cAMP)
- Format: cell-based
- measurement-setup: antagonistic activity; mean values where measured multiple times
pIC50: −log10 of the molar value.
observed-property: pIC50

INSERT INTO assay_data (molecule, observed_property, reported_value) VALUES
  ('COc1cnc(-c2ccc(-c3cc(NCCn4c(C)cc5c(OC)cc(F)cc54)ncn3)cc2)nc1', 'pIC50', 6.46),
  ('COc1cc(F)c(F)c2c1cc(C)n2CCNc1cc(-c2ccc(-c3ccno3)cc2)ncn1', 'pIC50', 6.08),
  ('Cc1cc(F)cc2c1cc(C)n2CCNc1cc(-c2ccc(-c3nnc(N)s3)cc2)ncn1', 'pIC50', 7.11),
  ('COc1cc(F)cc2c1cc(C)n2CCNc1cc(-c2cc(C(F)(F)F)c(C(=O)O)s2)ncn1', 'pIC50', 7.57),
  ('CCCc1cc(-c2cc(NCCn3c(C)cc4c(OC)c(F)ccc43)ncn2)cc(Cl)c1C(=O)O', 'pIC50', 6.43),
  ('CCOc1cc(-c2cc(NCC(C)n3c(C)cc4c(OC)ccc(F)c43)ncn2)ccc1C(=O)O (racemic)', 'pIC50', 6.10),
  ('COc1ccc(F)c2c1cc(C)n2CCNc1cc(-c2ccc(-c3ccno3)cc2)ncn1', 'pIC50', 6.60),
  ('COc1cc(F)cc2c1cc(C)n2CCNc1cc(-c2ccc(C(=O)O)c(OCC(C)C)c2)ncn1', 'pIC50', 7.10);

----------
Let's go through some IC50 measurements on EP2 (Homo sapiens (Human)) together.
Sequence (P43116 whole entry): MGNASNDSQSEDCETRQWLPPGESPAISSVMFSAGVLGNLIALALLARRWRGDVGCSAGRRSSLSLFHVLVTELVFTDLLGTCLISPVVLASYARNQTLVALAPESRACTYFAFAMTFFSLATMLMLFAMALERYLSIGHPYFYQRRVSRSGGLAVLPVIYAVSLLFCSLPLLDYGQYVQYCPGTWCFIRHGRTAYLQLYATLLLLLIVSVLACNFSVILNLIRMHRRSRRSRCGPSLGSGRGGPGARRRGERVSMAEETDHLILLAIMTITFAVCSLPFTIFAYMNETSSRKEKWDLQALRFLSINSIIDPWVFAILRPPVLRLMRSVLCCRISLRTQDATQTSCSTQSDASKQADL
observed-property: IC50 (nM)

INSERT INTO measurements (compound, reported_value) VALUES
  ('COc1cc(-c2cc(NCCn3c(C)cc4c(OC)cccc43)ncn2)ccc1-c1nnn[nH]1 [compound 670]', 8),
  ('CCCc1cc(-c2cc(NCCn3c(C)cc4c(C)ccc(F)c43)ncn2)cc(OCC)c1C(=O)O [compound 624]', 48),
  ('COc1ccc(F)c2c1cc(C)n2CCNc1cc(-c2ccc3c(c2)CN(CC(C)C)C3=O)ncn1 [compound 475]', 54),
  ('COc1ccc(F)c2c1cc(C)n2CCNc1cc(-c2ccc(C3(C(=O)O)CCCC3)cc2)ncn1 [Example 791]', 325),
  ('CNc1nnc(-c2ccc(-c3cc(NCCn4c(C)cc5c(OC)cc(F)cc54)ncn3)cc2)s1 [compound 645]', 9),
  ('CCOc1cc(-c2cc(NCCn3c(C)cc4c(OC)cc(F)c(F)c43)ncn2)cc(F)c1-c1nnn[nH]1 [compound 656]', 52),
  ('CCc1cc(-c2cc(NCCn3c(C)cc4c(OC)cc(F)cc43)ncn2)cc(Cl)c1C(=O)O [compound 438]', 64),
  ('CCOc1cc(-c2cc(NCCn3c(C)cc4c(C)cc(F)cc43)ncn2)cc(Cl)c1C(=O)O [compound 432]', 21),
  ('COc1c(F)cc(Cl)c2c1cc(C)n2CCNc1cc(-c2cc(F)c(C(=O)O)c(SC)c2)ncn1 [compound 509]', 110),
  ('CCOc1cc(-c2cc(NCCn3c(C)cc4c(C)cc(F)cc43)nc(C(F)(F)F)n2)sc1C(=O)O [compound 626]', 51),
  ('CCCOc1cc(-c2cc(NCCn3c(C)cc4c(C)cc(F)c(F)c43)ncn2)cc(F)c1C(=O)O [compound 627]', 48),
  ('CCCc1cc(-c2cc(NCCn3c(C)cc4cc(C)cc(F)c43)ncn2)cc(Cl)c1C(=O)O [compound 414]', 35),
  ('COc1cc(-c2cc(NCCn3c(C)cc4c(C)ccc(F)c43)ncn2)ccc1-c1nnn[nH]1 [Example 748]', 70),
  ('CCCCOc1cc(-c2cc(NCCn3c(C)cc4c(C)cc(F)cc43)ncn2)ccc1C(=O)O [compound 527]', 8),
  ('COc1ccc(F)c2c1cc(C)n2CCNc1cc(-c2ccc(C(=O)O)c(OC3CCC3)c2)ncn1 [compound 472]', 5),
  ('Cc1cc(F)cc2c1cc(C)n2CCNc1cc(-c2ccc3[nH]ccc3c2)ncn1 [compound 697]', 15),
  ('Cc1cc(F)cc2c1cc(C)n2CCNc1cc(-c2ccc(-c3nc(C(=O)O)cs3)cc2)ncn1 [compound 545]', 29),
  ('CCCOc1cc(-c2cc(NCCn3c(C)cc4c(C)cc(F)cc43)ncn2)ccc1C(=O)O [compound 439]', 19),
  ('Cc1cc(F)c(F)c2c1cc(C)n2CCNc1cc(-c2ccc(-c3cnc(N)o3)cc2)ncn1 [compound 577]', 114),
  ('COc1cc(F)cc2c1cc(C)n2CCNc1cc(-c2ccc(-c3csc(C(=O)O)n3)cc2)ncn1 [compound 578]', 9),
  ('CCOc1cc(-c2cc(NCCn3c(C)cc4c(C)cc(F)c(F)c43)ncn2)cc(F)c1-c1nnn[nH]1 [compound 657]', 71),
  ('Cc1ccc(F)c2c1cc(C)n2CCNc1cc(-c2ccc(C(=O)O)c(N3CCCC3)c2)ncn1 [compound 464]', 15),
  ('CCCOc1cc(-c2cc(NCCn3c(C)cc4c(OC)cccc43)ncn2)cc(Cl)c1C(=O)O [compound 497]', 11),
  ('CCOc1cc(-c2cc(NCCn3c(C)cc4c(OC)ccc(F)c43)ncn2)cc(CC)c1C(=O)O [compound 618]', 24),
  ('Cc1cc2c(Cl)cc(F)cc2n1CCNc1cc(-c2ccc(C(=O)O)c(CC(C)C)c2)ncn1 [compound 419]', 90),
  ('CCOc1cc(-c2cc(NCCn3c(C)cc4c(OC)ccc(F)c43)ncn2)ccc1C(=O)NOC [Example 765]', 13),
  ('CCCOc1cc(-c2cc(NCCn3c(C)cc4c(OC)cc(F)cc43)ncn2)cc(Cl)c1C(=O)O [compound 607]', 25),
  ('CCNc1cc(-c2cc(NCCn3c(C)cc4c(C#N)ccc(F)c43)ncn2)ccc1C(=O)O [compound 451]', 2),
  ('CCOC(=O)c1sc(-c2cc(NCCn3c(C)cc4c(OC)ccc(F)c43)ncn2)cc1OCC [Example 790]', 42),
  ('CNS(=O)(=O)c1ccc(-c2cc(NCCn3c(C)cc4c(C)ccc(F)c43)ncn2)cc1C(F)(F)F [compound 563]', 111),
  ('Cc1cc(F)cc2c1cc(C)n2CCNc1cc(-c2ccc(-c3cncn3C)cc2)ncn1 [compound 547]', 63);

----------
- experimental-target: EP4 (Homo sapiens (Human), UniProt P35408)
- Sequence (P35408 whole entry): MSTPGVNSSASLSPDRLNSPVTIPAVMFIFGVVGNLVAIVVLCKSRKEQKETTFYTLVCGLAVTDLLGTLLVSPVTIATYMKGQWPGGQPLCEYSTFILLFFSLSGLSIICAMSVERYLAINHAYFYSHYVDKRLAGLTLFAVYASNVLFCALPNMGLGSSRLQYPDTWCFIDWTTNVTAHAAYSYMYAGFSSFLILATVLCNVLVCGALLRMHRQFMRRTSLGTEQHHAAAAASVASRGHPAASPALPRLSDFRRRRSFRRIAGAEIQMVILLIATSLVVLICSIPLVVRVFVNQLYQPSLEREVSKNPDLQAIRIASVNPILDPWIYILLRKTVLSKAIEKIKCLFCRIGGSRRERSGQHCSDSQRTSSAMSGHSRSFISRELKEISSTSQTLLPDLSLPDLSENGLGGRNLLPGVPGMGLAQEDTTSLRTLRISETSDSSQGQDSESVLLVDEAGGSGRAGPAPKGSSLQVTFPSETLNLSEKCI
- assay-comment: hEP4 cAMP assay (BT549 breast cancer cells, HTRF cAMP)
- Assay type: cell-based
- measurement-setup: antagonistic activity; mean values where measured multiple times
- Description: Plate is pre-incubated 45 minutes at room temperature. Subsequently, 2.5 microliters of PGE2 (final conc. 6 nM) are transferred into the assay plate. Plate is incubated 30 minutes at room temperature.
Strictly below 200 nM in IC50: Fulfilled. Otherwise: Not fulfilled.

INSERT INTO measurements (molecule, assigned_category) VALUES
  ('CCOc1cc(-c2cc(NCCn3c(C)cc4c(C)cc(F)c(F)c43)ncn2)ccc1C(=O)O', 'Fulfilled'),
  ('CCCOc1cc(-c2cc(NCCn3c(C)cc4c(OC)ccc(F)c43)ncn2)cc(Cl)c1C(=O)O', 'Fulfilled'),
  ('CCOc1cc(-c2cc(NCCn3c(Cl)cc4c(C)ccc(F)c43)ncn2)ccc1C(=O)O', 'Not fulfilled'),
  ('CCSc1cc(-c2cc(NCCn3c(C)cc4c(OC)c(F)cc(Cl)c43)ncn2)ccc1C(=O)O', 'Not fulfilled'),
  ('CCCc1cc(-c2cc(NCCn3c(C)cc4c(OC)cc(Cl)cc43)ncn2)cc(F)c1C(=O)O', 'Fulfilled'),
  ('COc1cc(Cl)cc2c1cc(C)n2CCNc1cc(-c2ccc(-c3noc(=O)[nH]3)cc2)ncn1', 'Fulfilled'),
  ('Cc1cc(F)cc2c1cc(C)n2CCNc1cc(-c2ccc(C(=O)O)c(CC(C)C)c2)ncn1', 'Fulfilled'),
  ('CCOc1cc(-c2cc(NCCn3c(Cl)cc4c(OC)ccc(F)c43)ncn2)ccc1C(=O)O', 'Fulfilled'),
  ('Cc1nc(NCCn2c(C)cc3c(C)cc(F)cc32)cc(-c2ccc(C(=O)O)c(CC(C)C)c2)n1', 'Not fulfilled'),
  ('COc1cncc(-c2ccc(-c3cc(NCCn4c(C)cc5c(OC)cc(F)cc54)ncn3)cc2)n1', 'Fulfilled'),
  ('COc1cccc2c1cc(C)n2CCNc1cc(-c2cc(Cl)c(C(=O)O)c(OCC(F)(F)F)c2)ncn1', 'Fulfilled'),
  ('COc1cc(F)cc2c1cc(C)n2CCNc1cc(-c2ccc(C(=O)O)c(CC(C)C)c2)nc(C)n1', 'Fulfilled'),
  ('CCCc1cc(-c2cc(NCCn3c(C)cc4c(C)ccc(F)c43)ncn2)cc(OCC)c1C(=O)O', 'Not fulfilled'),
  ('Cc1cc(F)cc2c1cc(C)n2CCNc1cc(-c2cc(Cl)c(C(=O)O)c(OCC(C)C)c2)ncn1', 'Not fulfilled'),
  ('COc1cc(F)cc2c1cc(C)n2CCNc1cc(-c2ccc(-c3ncccn3)cc2)ncn1', 'Not fulfilled'),
  ('CCCOc1cc(-c2cc(NCCn3c(C)cc4c(OC)cccc43)ncn2)ccc1C(=O)O', 'Not fulfilled');
